Molecular target: T1, monkey GFRα3 expressed with a C-terminal myc-myc-hexahistidine tag (monkey (Mf), UniProt O60609 32-374 (human entry), limits assumed)
T1 construct: also called MfGFRα3-mmh; MfGFRα3-mmH
T1 chain: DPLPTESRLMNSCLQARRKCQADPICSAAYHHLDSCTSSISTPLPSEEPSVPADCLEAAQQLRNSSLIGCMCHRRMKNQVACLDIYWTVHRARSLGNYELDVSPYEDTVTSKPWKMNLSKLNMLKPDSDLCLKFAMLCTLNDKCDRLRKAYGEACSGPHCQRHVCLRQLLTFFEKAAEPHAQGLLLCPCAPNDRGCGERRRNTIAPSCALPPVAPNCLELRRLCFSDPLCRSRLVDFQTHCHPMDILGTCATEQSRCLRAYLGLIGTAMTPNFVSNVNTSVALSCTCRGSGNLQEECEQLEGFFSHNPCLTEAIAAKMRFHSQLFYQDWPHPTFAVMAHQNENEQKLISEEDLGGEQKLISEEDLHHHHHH
Test: SPR, Ab captured, 37C
measured_attribute: t1/2 (min)
Write the number in min without appending the unit.

Qu. // query t1/2 value for entry H4H2364S (antibody, human IgG4, V domains shown, human IgG4 Fc (H4H)) VH: EVQLVESGGGLEQPGGSLRLSCAASGFTFSSYVMSWVRQVPGKGLEWVSVISGSGGSTYYADSVKGRFTISRDNSKNTLYLQMNSLRAEDTAVYYCAKPSSYSSSNFHYGMDVWGQGTTVTVSS VL: DIQMTQSPYSVSASVGDRVTITCRASQGISSWLAWYQQKPGRAPKLLIYAASSLQSGVPSRFSGSGSGTDFTLTISSLQPEDFATYYCQKTNSFPFTFGPGTKVEIK
Ans. 13

Qu. // query t1/2 value for entry H4H2345S (antibody, human IgG4, V domains shown, human IgG4 Fc (H4H)) VH: EVQLVESGGGLVRPGRSLRLSCAASGFTFDNYAMHWVRQVPGKGLEWVSGITWNSVSLGYADSVKGRFTISRDNAQNSLYLQMNSLRTVDTALYYCAKDRWGGSYYFDFWGQGTLVTVSS VL: DIVMTQSPSSLSASVGDRVTITCRASQGISNYLAWYQQKPGKVPKLLIYSASTLQSGVPSRFSGSGSGTDFTLTISNLQPEDFATFFCQKYNSAPTFGGGTKVEIK
Ans. 3

Qu. // query t1/2 value for entry H2aM2210N (antibody, mouse IgG2, V domains shown, chimeric, mouse IgG2 Fc (H2M/H2aM); also called H2M2210N) VH: EVQLLESGGGLVQPGGSLRVSCAASGFTFSTSAMSWVRQAPGKGLEWVSGISGIGGGSTYYADSVKGRFTISRDNSKNTLYLQMNSLRAEDTAVYFCAKFYKWNSYIFDLWGQGTMVTVSS VL: EIVLTQSPDTLSLSPGERATLSCRASQSVSSSYFAWYQQKPGQAPRLLMYSASSRATGIPDRFSGSGSGTDFSLTISRLEPEDFAVYYCQQYGRSLTFGGGTKVEIK
Ans. 2

Qu. // query t1/2 value for entry H4H2293P (antibody, human IgG4, V domains shown, human IgG4 Fc (H4H)) VH: QVQLVESGGGVVQPGRSLRLSCAASGFSFSDYVMHWVRQAPGKGLEWVASIWFDGSNELYADSVKGRFTISRDNSKNTLFLQMNSLRAEDTAVYYCAKKGVLVATSAFHIWGQGTMVTVSS VL: AIQMTQSPSSLSASVGDRVTITCRASQNINNYLNWYHQKPGKAPNLLIYAASSLQSGVPSRFSGSGSGTDYTLTISSLQPEDFGNYYCQQSYSTSMYTFGQGTKLEIK
Ans. 73

Qu. // query t1/2 value for entry H4H2294S (antibody, human IgG4, V domains shown, human IgG4 Fc (H4H)) VH: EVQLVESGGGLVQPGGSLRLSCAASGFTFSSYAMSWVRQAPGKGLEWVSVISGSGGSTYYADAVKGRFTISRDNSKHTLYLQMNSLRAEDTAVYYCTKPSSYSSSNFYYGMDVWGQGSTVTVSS VL: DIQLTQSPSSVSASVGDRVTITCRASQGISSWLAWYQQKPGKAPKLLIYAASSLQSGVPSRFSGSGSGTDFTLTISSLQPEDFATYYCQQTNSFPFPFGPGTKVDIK
Ans. 12
